System: M. tuberculosis strain H37Rv (ATCC 25618)
Assay: MIC on M. tuberculosis by resazurin reduction microplate assay (REMA)
Format: cell-based
Conditions: Mycobacterium tuberculosis, M. tuberculosis H37Rv, read-out: MIC Mtb
outcome-measure: MIC

Record excerpt, results attached:
>  <molecule>
Nc1nc(Nc2ccc3nc(-c4ccc(F)cc4)cc(N)c3c2)cc(N2CCC(O)CC2)n1

>  <result-value>
16.5 µg/mL

$$$$
>  <molecule>
Nc1ccc2nc(-c3ccc(F)cc3)cc(N)c2c1

>  <result-value>
12.5 µg/mL

$$$$
>  <molecule>
Nc1nc(Cl)cc(Nc2ccc3nc(-c4ccc(F)cc4)cc(N)c3c2)n1

>  <result-value>
4.7 µg/mL

$$$$
>  <molecule>
Nc1cc(-c2ccc(F)cc2)nc2ccc(Nc3cc(Cl)ncn3)cc12

>  <result-value>
4.8 µg/mL

$$$$
>  <molecule>
NCC1CCN(c2cc(Nc3ccc4nc(-c5ccc(F)cc5)cc(N)c4c3)nc(N)n2)CC1

>  <result-value>
> 46 µg/mL

$$$$

Look up MIC for the entries below, preserving their order.
1. Nc1nc(Nc2ccc3nc(-c4ccc(F)cc4)cc(N)c3c2)cc(N2CCC(N)CC2)n1
2. CC(C)(C)OC(=O)NC1CCN(c2cc(Nc3ccc4nc(-c5ccc(F)cc5)cc(N)c4c3)nc(N)n2)CC1
3. CC(C)N1CCN(c2cc(Nc3ccc4nc(-c5ccc(F)cc5)cc(N)c4c3)nc(N)n2)CC1
4. CN1CCN(c2cc(Nc3ccc4nc(-c5ccc(F)cc5)cc(N)c4c3)nc(N)n2)CC1
5. CN(C)c1cc(Nc2ccc3nc(-c4ccc(F)cc4)cc(N)c3c2)nc(N)n1
6. CN1CCCC(COc2cc(Nc3ccc4nc(-c5ccc(F)cc5)cc(N)c4c3)nc(N)n2)C1 (stereo not drawn)
7. Nc1nc(Nc2ccc3nc(-c4ccc(F)cc4)cc(N)c3c2)cc(N2CCCC(O)C2)n1 (stereo not drawn)
8. Nc1nc(Nc2ccc3nc(-c4ccc(F)cc4)cc(N)c3c2)cc(OCCO)n1

44.5 µg/mL
6.1 µg/mL
7.6 µg/mL
15.6 µg/mL
5.9 µg/mL
37.5 µg/mL
10.2 µg/mL
9.8 µg/mL

Look up MIC for the entries below, preserving their order.
1. CN(C)C1CCN(c2cc(Nc3ccc4nc(-c5ccc(F)cc5)cc(N)c4c3)nc(N)n2)CC1
2. Fc1ccc(-c2ccc3cc(Nc4cc(N5CCNCC5)ncn4)ccc3n2)cc1
3. Nc1nc(Nc2ccc3nc(-c4ccc(F)cc4)cc(N)c3c2)cc(N2CCC(CO)CC2)n1

1. 10.9 µg/mL
2. 7.1 µg/mL
3. 17.7 µg/mL

Look up MIC for the entries below, preserving their order.
1. CNCCN(C)c1cc(Nc2ccc3nc(-c4ccc(F)cc4)cc(N)c3c2)nc(N)n1
2. Nc1nc(Nc2ccc3nc(-c4ccc(F)cc4)cc(N)c3c2)cc(N2CCN(CCO)CC2)n1

1: 21.6 µg/mL; 2: 16 µg/mL

====

System: E. coli (D22, lpxC mutant, drug-hypersensitive)
Test: microbe, parasite or virus in culture
Type: cell-based
Settings: Escherichia coli, read-out: MIC Ec D22
For each record, write down the corresponding MIC.
One number for each entry, in µg/mL.

>  <molecule>
Fc1ccc(-c2ccc3cc(Nc4cc(N5CCNCC5)ncn4)ccc3n2)cc1 [Compound 23]

>  <system-tested>
E. coli (D22, lpxC mutant, drug-hypersensitive)

>  <MIC, µg/mL>
16

$$$$

Look up MIC for the entries below, preserving their order.
1. Nc1nc(Cl)cc(Nc2ccc3nc(-c4ccc(F)cc4)cc(N)c3c2)n1 [Compound 7]
2. CC(C)(C)OC(=O)NCC1CCN(c2cc(Nc3ccc4nc(-c5ccc(F)cc5)cc(N)c4c3)nc(N)n2)CC1 [Compound 8g]
3. Nc1nc(Nc2ccc3nc(-c4ccc(F)cc4)cc(N)c3c2)cc(N2CCOCC2)n1 [Compound 8b]

1: 16; 2: 4; 3: 16

Given CCOc1cc(Nc2ccc3nc(-c4ccc(F)cc4)cc(N)c3c2)nc(N)n1 [Compound 9a] , state its recorded MIC.
4
